assay: logD by shake flask method (octanol / PBS pH 7.4, HPLC); format: physicochemical; details: octanol / PBS pH 7.4, shake flask
value kind: logD

// known answers, use as guide
For record C=CCNC(=O)C(=O)CC[C@H](NC(=O)c1cc2ccccc2o1)C(=O)Nc1cccn(CC(=O)NC2C3CC4CC(C3)CC2C4)c1=O (stereo partly shown) [II-119] the listed logD is 3 to 5

For record CNC(=O)C(=O)CC[C@H](NC(=O)c1oc2ccccc2c1C)C(=O)Nc1cccn(CC(=O)NC2CC3CCC2CC3)c1=O (stereo partly shown) [II-98] the listed logD is 1 to 3

For record Cc1c(C(=O)N[C@@H](CCC(=O)C(N)=O)C(=O)Nc2cccn(CC(=O)N[C@@H]3C[C@@H]4CC[C@H]3C4)c2=O)oc2ccccc12 [II-149] the listed logD is < 1

Now, please, on to the next compound.
For record CNC(=O)C(=O)CC[C@H](NC(=O)c1cncn1C)C(=O)Nc1cccn(CC(=O)NC23CC4(C)CC(C)(CC(C)(C4)C2)C3)c1=O [II-211] the listed logD is 1 to 3
